Cited source: paper PMC8698456

EXPERIMENTAL TARGET: Atu0526 (Agrobacterium fabrum)
pKd: −log10 of the molar value.

SMILES STRING	EXPERIMENTAL TARGET	pKd
O=CO	Atu0526 (Agrobacterium fabrum)	3.76

====

EXPERIMENTAL TARGET: Atu0526 (Agrobacterium fabrum, UniProt Q7D199, R115A)
Construct: periplasmic domain (Atu0526 LBD R115A; LBD from 36th residue to 197th residue)
Sequence (Q7D199 entry or part of it R115A): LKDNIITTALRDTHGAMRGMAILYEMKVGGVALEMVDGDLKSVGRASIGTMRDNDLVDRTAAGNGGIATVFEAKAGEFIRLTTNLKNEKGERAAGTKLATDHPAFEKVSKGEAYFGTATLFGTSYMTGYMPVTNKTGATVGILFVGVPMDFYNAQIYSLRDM
TEST SUMMARY: isothermal titration calorimetry (no significant Tm shift in thermo shift assay)

SMILES STRING	UNITS OF MEASURE	Kd
O=CO	µM	22.9
